test system: SN12C renal; assay: NCI-60 one-dose screen, 48 h (100 = growth as untreated, 0 = no growth, -100 = all killed); conditions: 10 µM unless noted
The panel holds about 83,000 compounds, 20% with a hit somewhere; the sample as a whole holds those more often. The source made the active and inactive calls. The calls were made as follows: active = growth percent below 10; inactive = the rest.
Reported growth values are given for each entry in this list.

COc1ccc(Nc2nc(-c3cc(O)c(C)c(C)c3O)cs2)cc1 | 88.4% (inactive)
COc1c(B(O)O)cccc1-c1cc(C)c2c(ccc3[nH]ncc32)n1 | 60.5% (inactive)
CN1C(=O)/C(=C\c2nc([P+](c3ccccc3)(c3ccccc3)c3ccccc3)c(N3CCOCC3)o2)SC1=S | 68.4% (inactive)
NS(=O)(=O)c1ccccc1NC(=O)Nc1nc2ccccc2s1 | 98.3% (inactive)
COc1cc(-c2csc(NC(=O)c3ccc(N4CCOCC4)c(C(F)(F)F)c3)n2)cc(OC)c1OC | 48.9% (inactive)
O=C(Nc1ccccc1O)c1ccc(CNC(=O)c2sccc2Nc2ccnc(C(F)(F)F)c2)cc1 | 57.8% (inactive)
COc1ccc(/C=N\Nc2nc(SCCC(C)C)nc(-c3ccc(OC)cc3)c2C#N)cc1 | 32.2% (inactive)
COC1=CC(c2ccc[nH]2)=N/C1=C\c1[nH]c(C)c(CC(=O)OCc2ccccc2)c1CCC(=O)OCc1ccccc1 | -15.6% (active)

For the compound O=[N+]([O-])c1cccc(-c2nc3cc4nc5ccccc5[nH]c4cc3n2)c1 , the measured growth on SN12C renal was 108% (inactive)

###

Test system: K-562 leukemia
Assay: NCI-60 one-dose screen, 48 h (100 = growth as untreated, 0 = no growth, -100 = all killed)
Details: 10 µM unless noted
Procedure: Cells are grown in 96 well plates and exposed to the test compound for 48 hours. Compounds are tested at a single concentration, which is 10^-5 M for most compounds. The reported endpoint is percent growth (GI% or GIPRCNT), where numbers from 0 - 100% represent growth inhibition, and numbers from -100% - 0 represent cell death. For example, a value of 40 represents 60% growth inhibition. A value of 0 means no net growth occurred over the course of the experiment. […]
This is part of a sample that, as a whole, favours compounds with a hit. Of some 83,000 tested, about 20% had one in any assay.
Listed compounds paired with reported growth
Numbers only here, please. The scale is %.

These recorded examples may help you get a feel for the data.
N#Cc1nc(-c2ccc(Cl)cc2)oc1S(=O)(=O)N1CCN(c2ccc(F)cc2)CC1 | 24.6
CCOC(=O)[C@@H]1CSC(CC)=C(C(=O)O)N1 | 8.66

growth for O=S(=O)(NCCCNc1nccc(-c2c(-c3ccc(F)c(O)c3)nc3sccn23)n1)c1ccccc1 is 37.6

###

System: SNB-75 CNS
Assay: NCI-60 one-dose screen, 48 h (100 = growth as untreated, 0 = no growth, -100 = all killed)
Conditions: 10 µM unless noted
Procedure: Growth inhibition of the SNB-75 human tumor cell line is measured as a screen for anti-cancer activity. Cells are grown in 96 well plates and exposed to the test compound for 48 hours. Compounds are tested at a single concentration, which is 10^-5 M for most compounds. The reported endpoint is percent growth (GI% or GIPRCNT), where numbers from 0 - 100% represent growth inhibition, and numbers from -100% - 0 represent cell death. For example, a value of 40 represents 60% growth inhibition. […]
Compounds without any hit were thinned out: in the full panel of roughly 83,000, 20% have a hit.
The threshold is inclusive: growth of exactly 70% counts as y; values below receive n.

COc1ccc(C2=C(Nc3ccc(C(=O)Nc4ccccc4)cc3)C(=O)N(C)C2=O)cc1 | y
COc1ccc(C2=Nc3c(N)nc(N)nc3NC(c3cccc(Nc4ccnc5cc(C(F)(F)F)ccc45)c3)C2)cc1 (stereo not given) | n
COc1cc2ncnc(Nc3ccc(F)c(Cl)c3)c2cc1OCC(=O)N1CCN(c2ccccc2)CC1 | y
C/C(=N\O)c1ccc(Cl)cc1 | y
CCNCCNc1cc(C2CCCCC2)c(C#N)c2nc3ccccc3n12 | n

Tell me whether growth is at least 70% here: CC(C)=CCC[C@](C)(O)[C@H]1CC[C@]2(C)[C@@H]1CC[C@@H]1[C@@]3(C)C/C(=C/c4ccco4)C(=O)C(C)(C)[C@@H]3CC[C@]12C
y

# bool: growth of NC(=O)C(=O)c1ccccc1NC=O >= 70%
y

Would you say N#Cc1ccc(O)c(C2=NCC(c3cccc(Oc4ccccc4)c3)O2)c1 (stereo not given) shows growth at minimum 70%?
n

Entry CSc1nc2ccccc2cc1/C=[N+](\[O-])c1ccccc1 : is its growth no less than 70%?
n

Is it the case that NC(Cc1ccc(O)c([N+](=O)[O-])c1)C(=O)O (stereo not given) has growth reaching or exceeding 70%?
y

Determine whether measured growth meets or exceeds 70% for CC(=O)O[C@H]1CC2CCC3C(CC[C@@]4(C)C3C[C@H]([N+]3(C)CCCCC3)[C@@H]4OC(C)=O)[C@@]2(C)C[C@@H]1N1CCCCC1 (stereo not given in full)
y

For this compound, is measured growth 70% or higher? COc1cc2c(cc1OCCCN1CCN(CCCOc3cc4c(cc3OC)C(=O)N3CC(F)(F)C[C@H]3C=N4)CC1)N=C[C@@H]1CC(F)(F)CN1C2=O
n

Can O=C1c2c(c3c4ccccc4[nH]c3c3ccc4ccccc4c23)C(=O)N1CCN1CCNCC1 be said to have growth at or above 70%?
y

Item COc1ccc(CNc2c3ccccc3nc3ccccc23)cc1 with growth of 70% or above?
n

Quick check: does COc1ccc(/C=N/C2=C(C#N)C(c3ccccc3)c3ccc4ccccc4c3O2)cc1 (stereo not given) have growth greater than or equal to 70%?
n

hey, is growth for this one >= 70%? Clc1ccc(/C=N\N=C\c2ccc(Cl)c(Cl)c2)cc1Cl
y

###

Reported growth values follow for various compounds
test system: U251 CNS; test: NCI-60 one-dose screen, 48 h (100 = growth as untreated, 0 = no growth, -100 = all killed); details: 10 µM unless noted
Compounds without any hit were thinned out: in the full panel of roughly 83,000, 20% have a hit.
Just the number please, in %, no unit attached.

Some compounds with recorded growth:
Cc1cc(C(=O)O)c(C)n1-c1cccc(C(=O)O)c1 | 64.2
COc1ccc(/C=C(\C#N)n2nnc3cc(F)c(F)cc32)cc1 | 72.4
CS(=O)(=O)Nc1cc(-c2ccc3ncnc(Nc4ccc5c(cnn5Cc5cccc(F)c5)c4)c3c2)cnc1Cl | 9.46
C=C1CC[C@@H]2[C@](C)(COC(C)=O)[C@H](OC(C)=O)CC[C@@]2(C)[C@@H]1CC(Nc1ccc(S(=O)(=O)Nc2ncccn2)cc1)C1=CCOC1=O (some centres undefined) | -19
CCOC(=O)c1cc(C(=O)c2cc(OC)c(OC)c(OC)c2)n2ncccc12 | 14.8
COc1cc2oc(-c3cccc(NC(=O)c4ccccc4)c3)cc(=O)c2c(OC)c1OC | 83.7

Note to self: growth recorded for COC(=O)[C@]1(C)CCC[C@]2(C)[C@H]3C[C@H]4C(C(C)C)=C[C@]3(CC[C@H]21)[C@@H]1C(=O)CC[C@H](OCCC#N)[C@@H]14 was 77.6

Per the record, CSc1nc2ccccc2cc1/C=[N+](\[O-])c1ccccc1 has growth of 46.2

// recorded growth for CCOC(=O)C1=C(c2ccccc2)N=C2SC=C(c3ccc(Cl)cc3)N2C1c1ccc(Br)cc1 (centres undefined) : 85.8

###

tested on: HOP-62 NSCLC; test: NCI-60 one-dose screen, 48 h; conditions: 10 µM unless noted
Compounds without any hit were thinned out: in the full panel of roughly 83,000, 20% have a hit. Calls of active or inactive are those of the source. Rule for the calls: active = growth percent below 10; inactive = the rest.
Pick from active, inactive when you respond.

These recorded examples may help you get a feel for the data.
COc1ccc(C(=O)N2c3ccccc3Sc3ccccc32)c(OC)c1 | inactive
Cn1cc(C(=O)c2nc(-c3c[nH]c4ccccc34)no2)c2cc(F)ccc21 | inactive
Cc1cc(C)c2c(c1)N(C)c1ncnc(-n3cnc4cc(C)ccc43)c1CC2C (stereo not given) | inactive

Query: recorded result category for O=C(/C=C/c1cccc(Cl)c1)c1ccc(Nc2nc(Nc3ccc(F)cc3)nc(Nc3ccc(Cl)cc3)n2)cc1 in this test
inactive

// outcome(item) with item = CCSc1oc(-c2ccccc2)nc1[P+](c1ccccc1)(c1ccccc1)c1ccccc1
active

Per the assay record, what outcome was assigned to O=S(=O)(Nc1cc(Cl)ccc1Cl)c1ccc(-c2cnc(C3CC3)o2)cc1 ?
inactive

Entry COc1ccc(/C=C/C(=O)c2cccc(OCCCCOc3cccc(C(=O)/C=C/c4ccc(OC)c(OC)c4)c3)c2)cc1OC : call = ?
inactive

Which outcome was assigned to c1ccc(-c2oc(-c3ccccc3)c(CN3CCCCC3)c2CN2CCCCC2)cc1 in this test?
inactive

Could you kindly confirm the outcome this assay logged for NC(=O)CSc1oc(-c2ccccc2)nc1S(=O)(=O)c1ccc(Br)cc1 ?
inactive

Recorded call for CN1CCc2nc3sc(C(N)=O)c(N)c3c(-c3cccs3)c2C1 ?
inactive

The reported numbers originate from PubChem BioAssay (NCI).
